molecular target: HDAC1 (Homo sapiens (Human)); details: read-out: HDAC1 IC50
Sequence (Q13547 whole entry): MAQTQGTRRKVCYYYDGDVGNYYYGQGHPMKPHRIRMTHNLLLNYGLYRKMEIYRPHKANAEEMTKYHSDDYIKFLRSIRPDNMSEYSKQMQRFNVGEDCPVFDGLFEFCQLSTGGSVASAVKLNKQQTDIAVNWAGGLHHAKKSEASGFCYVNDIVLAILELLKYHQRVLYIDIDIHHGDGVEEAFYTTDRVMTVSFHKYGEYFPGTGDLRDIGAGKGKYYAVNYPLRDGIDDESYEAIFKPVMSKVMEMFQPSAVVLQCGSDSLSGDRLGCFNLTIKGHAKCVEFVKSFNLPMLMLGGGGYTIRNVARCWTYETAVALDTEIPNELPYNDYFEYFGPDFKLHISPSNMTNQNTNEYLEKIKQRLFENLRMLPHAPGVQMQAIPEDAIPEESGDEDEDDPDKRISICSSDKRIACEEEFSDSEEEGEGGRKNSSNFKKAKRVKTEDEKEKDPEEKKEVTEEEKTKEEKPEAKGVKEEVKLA
pIC50: −log10 of the molar value.
Parameter: pIC50. Scope: all listed entries.
observation type: pIC50

- structure smiles: "Cc1cnc(COc2nccc(-c3noc(C(F)(F)F)n3)c2Cl)cn1"
  study target: "HDAC1 (Homo sapiens (Human))"
  observation type: "pIC50"
  numeric readout: 5.09
- structure smiles: "FC(F)(F)c1nc(-c2ccnc(OCc3ccno3)c2)no1"
  study target: "HDAC1 (Homo sapiens (Human))"
  observation type: "pIC50"
  numeric readout: 5.82
- structure smiles: "Fc1cc(COc2cnc3[nH]ccc3c2)ccc1-c1noc(C(F)(F)F)n1"
  study target: "HDAC1 (Homo sapiens (Human))"
  observation type: "pIC50"
  numeric readout: 5.38
- structure smiles: "O=C(Cn1cnc2ccccc21)N(Cc1ccc(-c2noc(C(F)(F)F)n2)cc1)c1cccc(C(F)(F)F)c1"
  study target: "HDAC1 (Homo sapiens (Human))"
  observation type: "pIC50"
  numeric readout: 5.38
